Below: a set of entries, each annotated with reported Diameter of the zone of inhibition, P. vulgaris.
# Tested on: Proteus vulgaris SRI 180
# method.notes: Agar disc diffusion assay
# Type: cell-based
# cond: 240 ug/disc, about 24 hr at 37° C.; 0 = no measurable zone
Give the quantity in mm, number only.

Please review the following examples before continuing.
Cl.Cl.O=C(CCN1CCN(Cc2ccccc2)CC1)c1ccc(F)c(Br)c1 [Example 25] : 16.0
Cl.O=C(CCN1CCN(C(=O)c2ccccc2C(F)(F)F)CC1)c1ccccc1F [Example 43] : 15.9
Cl.Cl.O=C(CCN1CCN(Cc2ccccc2)CC1)c1ccc([N+](=O)[O-])cc1 [Example 5] : 17.3
Cl.Cl.O=C(CCN1CCN(C(c2ccccc2)c2ccc(Cl)cc2)CC1)c1ccc(Br)s1 (stereo not drawn) [Example 78] : 14.5

Turning to the following compound.
Entry under review: Cl.Cl.O=C(CCN1CCN(Cc2ccccc2)CC1)c1csc([N+](=O)[O-])c1 [Example 80] . Reported Diameter of the zone of inhibition, P. vulgaris?
13.8

###

Counter-ions that a name gives are not always drawn.
Below: a set of entries, each annotated with reported melting point.

Please review the following examples before continuing.
O=C(CCN1CCN(Cc2ccccc2)CC1)c1ccc(I)cc1 (as salt: hydrochloride) : 224 °C (dec.)
O=C(CCN1CCN(Cc2ccccc2)CC1)c1ccc(-c2ccccc2)cc1 (as salt: hydrochloride) [Example 22, dihydrochloride] : 225 °C (dec.)
O=C(CCN1CCN(Cc2ccccc2)CC1)c1ccc2c(c1)-c1ccccc1-2 : 133 to 134 °C
O=C(CCN1CCN(C(=O)c2ccc(I)cc2)CC1)c1ccc(N2CCOCC2)cc1 (as salt: hydrochloride) [Example 68, dihydrochloride] : 240 °C
O=C(CCN1CCN(Cc2ccccc2)CC1)c1ccc2c(c1)Cc1ccccc1-2 (as salt: hydrochloride) [Example 28, dihydrochloride] : 225 °C (dec.)

Turning to the following molecule.
Entry under review: O=C(CCN1CCN(Cc2ccccc2)CC1)c1cc(C(F)(F)F)cc(C(F)(F)F)c1 (as salt: hydrochloride) [Example 9, dihydrochloride] . Reported melting point?
255 °C

###

Where a name gives a salt, the structure may show the parent alone.
Below: a set of entries, each annotated with reported melting point.

Entry under review: O=C(CCN1CCN(Cc2ccccc2)CC1)c1cc2ccccc2o1 (as salt: hydrochloride) [Example 10, dihydrochloride] . Reported melting point?
255 to 257 °C

// same read-out, input: O=C(CCN1CCN(C(=O)c2ccccc2F)CC1)c1ccc([N+](=O)[O-])cc1 (as salt: hydrochloride) [Example 54, dihydrochloride]
217 to 218 °C

###

Below: a set of entries, each annotated with reported melting point.
Structures can show the parent of a compound that is named as a salt.

Cc1c(C(=O)CCN2CCN(Cc3ccccc3)CC2)sc2ccc(Cl)cc12 (as salt: hydrochloride) [Example 82, dihydrochloride] : 247 °C (dec.)

Entry under review: Cc1ccc(C(=O)CCN2CCN(Cc3ccccc3)CC2)o1 (as salt: hydrochloride) . Reported melting point?
213 °C (dec.)

// same read-out, input: O=C(CCN1CCN(Cc2ccccc2)CC1)c1cccn1S(=O)(=O)c1ccccc1 (as salt: hydrochloride) [Example 91, dihydrochloride]
215 °C (dec.)

// same read-out, input: Cl.Cl.O=C1c2ccccc2SCC1CN1CCN(Cc2ccccc2)CC1 (stereo not shown)
> 250 °C (dec.)

// same read-out, input: O=C(CCN1CCN(C(=O)c2c(F)cccc2F)CC1)c1ccc([N+](=O)[O-])cc1 (as salt: hydrochloride)
225 to 227 °C

// same read-out, input: O=C(CCN1CCC(C(=O)c2ccc(F)cc2)CC1)c1csc([N+](=O)[O-])c1 (as salt: hydrochloride)
205 to 206 °C

// same read-out, input: O=C(CCN1CCN(Cc2ccccc2)CC1)c1ccc2c(c1)OCCO2 (as salt: hydrochloride) [Example 19, dihydrochloride]
215 °C (dec.)

###

Counter-ions that a name gives are not always drawn.
observation.type: melting point

Please review the following examples before continuing.
CS(=O)(=O)Nc1ccc(C(=O)CCN2CCN(Cc3ccccc3)CC2)cc1 (as salt: hydrochloride) [Example 26, dihydrochloride] : 202 to 205 °C
Cn1cc(C(=O)CCN2CCN(Cc3ccccc3)CC2)cn1 (as salt: hydrochloride) [Example 24, dihydrochloride] : 221 °C (dec.)
O=C(CCN1CCC(Cc2ccccc2)CC1)c1ccc(Br)s1 (as salt: hydrochloride) : 205 to 208 °C
O=C(CCN1CCN(C(=O)c2sc3ccccc3c2Cl)CC1)c1ccc(Br)s1 (as salt: hydrochloride) [Example 86, dihydrochloride] : 188 to 189 °C
O=C(CCN1CCN(Cc2ccccc2)CC1)c1ccc2c(c1)CCCC2 (as salt: hydrochloride) [Example 20, dihydrochloride] : 200 °C (dec.)
O=C(CCN1CCN(C(=O)c2ccccc2F)CC1)c1cccs1 (as salt: hydrochloride) : 183 to 184 °C

Turning to the following compound.
Entry under review: O=C(CCN1CCN(C(=O)c2c(F)cccc2F)CC1)c1ccc(Br)s1 (as salt: hydrochloride) . Reported melting point?
225 to 226 °C

###

Structures can show the parent of a compound that is named as a salt.
observation.type: melting point

O=C(CCN1CCN(C(c2ccccc2)c2ccc(Cl)cc2)CC1)c1cccs1 (stereo not shown) (as salt: hydrochloride) [Example 89, dihydrochloride] : 189 to 201 °C

Entry under review: COc1ccc(C(=O)CCN2CCN(Cc3ccccc3)CC2)c2ccccc12 (as salt: hydrochloride) [Example 79, dihydrochloride] . Reported melting point?
230 °C (dec.)

// same read-out, input: O=C(CCN1CCN(Cc2ccccc2)CC1)c1ccc(-c2ccccc2)s1 (as salt: hydrochloride) [Example 56, dihydrochloride]
224 to 247 °C

// same read-out, input: O=C(CCN1CCN(Cc2ccccc2)CC1)c1ccc(Sc2ccccc2)cc1 (as salt: hydrochloride)
210 °C (dec.)
